For each record, write down the corresponding Percent Effect.
# Test system: Wolbachia pipientis
# assay.notes: Anti-Wolbachia Cell-Based Screen
# Type: functional
# Parameters: scale not given: in the data most compounds retested in dose-response had high values
# measurement.setup: 5 µM
Screen size: about 48,000 compounds; about 13,000 (27%) showed an effect of 50% or more. This is one part of the list.
Value expressed in %; do not type the unit.

Problem: For the compound "O=S(=O)(Cc1ccccc1)c1nnc(N2CCCC2)s1" , what Percent Effect is on record?
Result: -13.72

Problem: Please look up its Percent Effect: "CN(C)Cc1nc2c(o1)CN(S(=O)(=O)c1cccs1)C2.O=C(O)C(F)(F)F"
Result: 113.1

Problem: What Percent Effect value was documented for this compound, "CSC1=Nc2c(cnn2-c2ccc(Cl)cc2)C2=NCCCN12" ?
Result: 101

Problem: Look up Percent Effect for this compound: "COc1cccc(N2CCN(CC[C@H](O)c3ccccc3)CC2=O)c1"
Result: -29.06

Problem: Need Percent Effect, item COc1cccc(N2CCN(C(=O)C(OC)c3ccccc3)CC2=O)c1 (stereo not given)
Result: 13.04

Problem: # Percent Effect lookup, item "CN(Cc1ccco1)C[C@H]1OC[C@@H]2CCN(Cc3nccs3)C[C@@H]21"
Result: -15.41

Problem: Sample "COc1cccc(N2CCN(Cc3ccc4occc4c3)CC2=O)c1" — what was its Percent Effect?
Result: 113.8

Problem: // query Percent Effect value for entry "CC(C)(CNc1ccccc1S(=O)(=O)C(F)F)N1CCOCC1"
Result: 14.98

Problem: I have this compound here, "COCCCN1C(=O)CC[C@H]2CN(Cc3ccc4occc4c3)CC[C@H]21" , and I need its recorded Percent Effect.
Result: -8.694

Problem: Sample "Cc1ccccc1CN1CCN(C(=O)CCn2ccccc2=O)CC1" — what was its Percent Effect?
Result: -43.85

Problem: Param item = "CCN(CC)Cc1nc2c(o1)CN(C(=O)c1ccncc1F)C2" ; retrieve measured Percent Effect.
Result: 11.31

Problem: Returns the measured Percent Effect for the input compound. Input: "CN1CCN(c2ccc(NCc3ccsc3)cn2)CC1"
Result: -12.65

Problem: Any idea what its Percent Effect is? The compound is CN(C)C(C(=O)N1CC(Oc2ccccc2F)C1)c1ccc(F)cc1 (stereo not given)
Result: 10.57

Problem: Consider the compound shown here: "CSCCc1c(-c2ccccc2)ncn1[C@H]1C[C@@H](C(=O)O)N(C)C1" What is its recorded Percent Effect?
Result: 9.47

Problem: # query: Percent Effect of entry O=C(NCCn1ccnc1)NCC(c1ccco1)N1CCCC1 (stereo not given)
Result: 107.9

Problem: Item CCc1c(O)nc(SCC(=O)N(CC)CC)n(C(C)CC)c1=O (stereo not given) has what recorded Percent Effect?
Result: -0.2531

Problem: Given the entry O=C(NCc1ccccn1)NCC(c1ccco1)N1CCCCC1 (stereo not given) , report its measured Percent Effect.
Result: 12.69

Problem: May I ask what Percent Effect has been recorded for "CCn1cc(CN2CCN(Cc3cccc(OC)c3)C(=O)C2)cc1C#N" ?
Result: -7.886

Problem: Fill blank: measured Percent Effect of the compound "Cc1cccnc1CN1CCN(C(=O)CCn2ccccc2=O)CC1" is ____.
Result: -35.18

Problem: Form field: reported Percent Effect of "CN(C)S(=O)(=O)N1C[C@@H]2CC[C@H](C1)N(C/C=C/c1ccc(F)cc1)C2"
Result: 19.59

Problem: What does the data say about its Percent Effect? Entry: "COc1ccc2cc(CN(C)CCc3cn[nH]c3)c(=O)[nH]c2c1"
Result: -3.299

Problem: Quick one: Percent Effect of CCc1c(O)nc(SCC(=O)Nc2ccccc2)n(C(C)CC)c1=O (stereo not given) ?
Result: -0.04082

Problem: Given the entry "CN(Cc1ccco1)C[C@H]1OC[C@@H]2CCN(Cc3cccnc3)C[C@@H]21.O=C(O)C(F)(F)F.O=C(O)C(F)(F)F.O=C(O)C(F)(F)F" , report its measured Percent Effect.
Result: 7.341

Problem: # Percent Effect lookup, item O=C(NCCCn1ccnc1)NCC(c1ccco1)N1CCCCC1 (stereo not given)
Result: 152.2

Problem: Item under review: "CN(Cc1ccco1)C[C@H]1OC[C@@H]2CN(c3ncc(F)cn3)CC[C@@H]21.O=C(O)C(F)(F)F.O=C(O)C(F)(F)F" . Reported Percent Effect?
Result: 81.17

Problem: Name the recorded Percent Effect for "COc1cccc(N2CCN(Cc3ccc(NC(C)=O)cc3)CC2=O)c1" .
Result: -1.185

Problem: Look at this compound and give its reported Percent Effect. "COc1cccc(CN2CCN(Cc3ccc4nonc4c3)CC2=O)c1"
Result: -14.94

Problem: Find the recorded Percent Effect belonging to O=C(NCCCn1ccnc1)NCC(c1ccco1)N1CCCC1 (stereo not given) and report it.
Result: 97.42

Problem: Any idea what Percent Effect was measured for O=C(NCc1ccccn1)NCC(c1ccco1)N1CCCC1 (stereo not given) ?
Result: 11.6

Problem: Fill in: Percent Effect of "Cc1ccccc1CN1CCN(C(=O)c2ccn(C(C)(C)C)c2)CC1" is ___
Result: 106.5

Problem: Reported Percent Effect for "CC(=O)NCC(=O)N1Cc2nc(COCc3csc(C)n3)oc2C1" : what is it?
Result: 5.619

Problem: // returns reported Percent Effect for input O=C(NCCn1ccnc1)NCC(c1ccco1)N1CCCCC1 (stereo not given)
Result: -2.241

Problem: Report Percent Effect for "Cc1cc(CN(C)C(=O)c2ccnc(N(C)C)c2)no1" please.
Result: -7.552

Problem: Could you share which Percent Effect value was measured for "COc1cc(CN2CCN(c3cccc(OC)c3)C(=O)C2)cc(OC)c1" ?
Result: -15.09

Problem: Need Percent Effect, item "CC(C)(C)n1cc(C(=O)N2CCN(Cc3ccccc3F)CC2)cn1"
Result: -9.517

Problem: Returns the measured Percent Effect for the input compound. Input: "Cc1cc(C)n(CCN2CCN(C(=O)c3cc4ccccc4o3)CC2)n1"
Result: 9.033

Problem: Give its Percent Effect value. Item: "CCCN1CCC(N2CCN(c3cccc(C)n3)CC2)CC1"
Result: 3.962

Problem: I am curious: what Percent Effect value has been reported for O=C(CCn1cccn1)NCC(c1cccs1)N1CCCC1 (stereo not given) ?
Result: -57.56

Problem: What does the data say about its Percent Effect? Entry: "COc1cccc(N2CCN(Cc3ccc4ccn(C)c4c3)CC2=O)c1"
Result: 113.3

Problem: Entry under review: COc1c(C2CCCN2C(=O)c2ccnn2C)c(C)nn1C (stereo not given) . Reported Percent Effect?
Result: -14.45

Problem: Bench note: what Percent Effect did Cc1nn(C)c(Cl)c1C1CCCN1C(=O)c1ccoc1C (stereo not given) show?
Result: 103.1

Problem: For the compound shown here, O=C(Cn1cccn1)NCC(c1cccs1)N1CCCC1 (stereo not given) , give the reported Percent Effect.
Result: -1.128

Problem: Given the compound "COc1cccc(N2CCN(Cc3cc(C)cc(F)c3)CC2=O)c1" , what is its reported Percent Effect?
Result: 130.9

Problem: Record request: Percent Effect value, item "CC1(C)[C@H]2CC=C(CN3CCCn4nc(C(=O)O)cc4C3)[C@@H]1C2"
Result: -7.582

Problem: Suppose we examine the compound "CC(C)N(C)Cc1ncn2c1CN(S(=O)(=O)c1cccs1)CCC2.O=C(O)C(F)(F)F" ; what Percent Effect value has been reported?
Result: 2.779

Source of measurements: ChEMBL document CHEMBL3988442
